# Test system: Plasmodium falciparum
# assay_details: Screen against P. falciparum Asexual Blood Stage (ABS), at 5uM
# Assay type: functional, Dd2
# conditions: tested at 5 uM
Hit rate of the full screen: of about 65,000 compounds, about 2,100 (3.2%) showed an effect of 50% or more. The median lay at about -52%. Shown is part of a subset that was picked to be rich in strong results.
Each record gets a class by INHIBITION: I = under -70%, II = from -70% up to 20%, III = 20% and over

Worked examples follow.
[[record]]
molecule = "CCOCCN1CCN(CCOCC(F)(F)F)CC1"
discrete_label = "II"

[[record]]
molecule = "CN(Cc1cccnc1)[C@@H]1CN(Cc2ccccn2)[C@@H]2CCCO[C@H]12"
discrete_label = "III"

[[record]]
molecule = "CC(C)c1nn(C)c(N2CCOCC2)c1CNCc1cscn1"
discrete_label = "I"


Textbook exercise: identify the category of the molecule given here, `CCN(CC)C1CCN(C(=O)c2cc(-n3cccn3)ccc2Cl)CC1` , according to its measured value.
III

Note, next up: CC1CCCN(S(=O)(=O)NCCNC(=O)c2ncccc2O)C1 (stereo not drawn)
I

Note, next up: `CNC(=O)c1nc(COc2ccc3c(c2)OCO3)no1`
I

Note, next up: `Fc1ccc(OCCNC2CCN(Cc3ccccn3)CC2)c(F)c1`
III

Note, next up: `Cn1cc(C[C@H]2[C@H](O)CCN2C(=O)c2ccsc2)cn1`
II

Note, next up: `COc1cccc([C@H]2CN(C(=O)c3ccccc3)[C@@H]3CCCN[C@H]23)c1`
III
